# Tested on: RXF 631
# Assay info: NCI tumour cell line growth inhibition, 48 h
Calls of active or inactive are those of the source. No stated cut-off is given here; in the data, active = GI50 up to about 1.1 µM and inactive = higher.
One label from this list, please: true (1) (active), false (0) (inactive)

Asked: Short answer needed: outcome of this test for `Cc1cccc(C)c1NC(=O)CCC(=O)NNc1nnc(C)n1N` ?
Given back: false (0)

Asked: // outcome(item) with item = CC1CC[C@]2(C(=O)O)CCC3(COC(=O)/C=C\c4ccc(O)cc4)C(=CCC4[C@@]5(C)CC[C@H](O)C(C)(C)C5CC[C@]43C)[C@@H]2[C@H]1C (some centres undefined)
Given back: false (0)

Asked: For O=C(O)C(CS)NCc1c2ccccc2nc2ccccc12 (centres undefined) , what call appears in the results of this test?
Given back: false (0)

We now examine a further compound.
Asked: Please state the recorded outcome for this compound: `C=C1C(=O)O[C@@H]2C[C@@H](C)[C@@H]3C=CC(=O)[C@@]3(C)[C@@H](OC(=O)CC(=O)O[C@H]3[C@@H]4C(=C)C(=O)O[C@@H]4C[C@@H](C)[C@@H]4C=CC(=O)[C@]43C)[C@H]12`
Given back: true (1)
